Measured IC50 accompanies every entry in the list below.
Tested on: HuCCA-1 (cholangiocarcinoma derived from a patient)
assay_explanation: Cytotoxic activity assay (MTT)
Format: cell-based, human
condition_context: Homo sapiens, HuCC-A1; 48 h exposure, MTT; read-out: Cell lines, IC50 (μM) HuCCA-1

{"molecule": "C#CCNC(=O)/C=C(\\C)CC[C@H]1C(=C)CC[C@H]2C(C)(C)CCC[C@]12C", "unit_symbol": "µM", "qualifier_operator": "=", "IC50": 52.7}
{"molecule": "C=C1CC[C@H]2C(C)(C)CCC[C@]2(C)[C@H]1CC/C(C)=C/C(=O)N(C)O", "unit_symbol": "µM", "qualifier_operator": "=", "IC50": 58.6}
{"molecule": "C=C1CC[C@H]2C(C)(C)CCC[C@]2(C)[C@H]1CC/C(C)=C/C(=O)NOC", "unit_symbol": "µM", "qualifier_operator": "=", "IC50": 49.8}
{"molecule": "C=C1CCC2C(C)(C)CCCC2(C)C1CCC(C)=CC(=O)O (centres unmarked) [Compound 1, anticopalic acid]", "unit_symbol": "µM", "qualifier_operator": "=", "IC50": 157}
{"molecule": "C=C1CC[C@H]2C(C)(C)CCC[C@]2(C)[C@H]1CC/C(C)=C/C(=O)NCC(=O)OC", "unit_symbol": "µM", "qualifier_operator": "=", "IC50": 81.1}
{"molecule": "C=C1CC[C@H]2C(C)(C)CCC[C@]2(C)[C@H]1CC/C(C)=C/C(=O)NC", "unit_symbol": "µM", "qualifier_operator": "=", "IC50": 62.9}
{"molecule": "C=C1CCC2C(C)(C)CCCC2(C)C1CCC(C)=CC(=O)NCC(=O)OCC (centres unmarked)", "unit_symbol": "µM", "qualifier_operator": "=", "IC50": 72.3}
{"molecule": "C=C1CC[C@H]2C(C)(C)CCC[C@]2(C)[C@H]1CC/C(C)=C/C(=O)NCC(=O)O", "unit_symbol": "µM", "qualifier_operator": ">", "IC50": 120}

---

Test system: T-47D (hormone-dependent breast cancer)
assay_explanation: Cytotoxic activity assay (MTT)
Format: cell-based, human
condition_context: SI = IC50 normal cell (MRC-5)/ IC50 cancer cell
measurement_label: Selectivity Index (SI) values T47-D

{"compound": "C=C1CC[C@H]2C(C)(C)CCC[C@]2(C)[C@H]1CC/C(C)=C/C(=O)N1CCCCC1", "measurement_label": "Selectivity Index (SI) values T47-D", "value": 0.5}
{"compound": "C=C1CC[C@H]2C(C)(C)CCC[C@]2(C)[C@H]1CC/C(C)=C/C(=O)N(C)OC", "measurement_label": "Selectivity Index (SI) values T47-D", "value": 1.0}
{"compound": "C=C1CCC2C(C)(C)CCCC2(C)C1CCC(C)=CC(=O)O (stereo not shown) [Compound 1, anticopalic acid]", "measurement_label": "Selectivity Index (SI) values T47-D", "value": 1.0}
{"compound": "C=C1CC[C@H]2C(C)(C)CCC[C@]2(C)[C@H]1CC/C(C)=C/C(=O)NCCCCCCCC", "measurement_label": "Selectivity Index (SI) values T47-D", "value": 1.0}
{"compound": "C=C1CC[C@H]2C(C)(C)CCC[C@]2(C)[C@H]1CC/C(C)=C/C(=O)NCC(=O)O", "measurement_label": "Selectivity Index (SI) values T47-D", "value": 1.0}
{"compound": "C=C1CC[C@H]2C(C)(C)CCC[C@]2(C)[C@H]1CC/C(C)=C/C(=O)NCCc1c[nH]c2ccccc12", "measurement_label": "Selectivity Index (SI) values T47-D", "value": 0.4}
{"compound": "C=C1CC[C@H]2C(C)(C)CCC[C@]2(C)[C@H]1CC/C(C)=C/C(=O)N(C)C", "measurement_label": "Selectivity Index (SI) values T47-D", "value": 1.0}
